- EXPERIMENTAL TARGET: COX-1 (Mus musculus)
- Sequence (P22437 27-602): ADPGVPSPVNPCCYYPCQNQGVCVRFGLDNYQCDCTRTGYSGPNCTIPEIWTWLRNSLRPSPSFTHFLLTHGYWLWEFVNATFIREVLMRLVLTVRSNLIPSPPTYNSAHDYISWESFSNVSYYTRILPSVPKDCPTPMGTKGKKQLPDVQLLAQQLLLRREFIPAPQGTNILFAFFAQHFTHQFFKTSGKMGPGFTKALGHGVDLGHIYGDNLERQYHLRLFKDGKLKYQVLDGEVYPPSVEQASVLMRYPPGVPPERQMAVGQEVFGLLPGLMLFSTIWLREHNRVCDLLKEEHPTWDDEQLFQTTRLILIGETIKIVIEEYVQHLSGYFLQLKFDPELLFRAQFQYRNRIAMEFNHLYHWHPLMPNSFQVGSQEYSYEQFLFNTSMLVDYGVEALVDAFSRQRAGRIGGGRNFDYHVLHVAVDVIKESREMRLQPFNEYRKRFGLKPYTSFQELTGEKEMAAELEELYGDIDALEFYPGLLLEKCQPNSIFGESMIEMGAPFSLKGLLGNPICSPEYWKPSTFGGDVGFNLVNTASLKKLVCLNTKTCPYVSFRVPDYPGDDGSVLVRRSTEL
- TEST: Evaluation of COX-1 activity: PGE2 formation in mouse peritoneal macrophages without aspirin and LPS treatment
- Assay type: cell-based
PARAMETER MEASURED: IC50, μg/ml COX-1 (µg/mL)
Give bare numbers, in µg/mL.

Example entries begin here.
1. CC1(C)OC(c2ccc(S(N)(=O)=O)cc2F)=C(c2ccc(F)cc2)C1=O | 3
2. CC1(C)OC(c2ccc(S(N)(=O)=O)c(F)c2)=C(c2ccc(F)c(F)c2)C1=O | 3
3. CC1(C)OC(c2ccc(S(N)(=O)=O)c(Cl)c2)=C(c2cccc(F)c2)C1=O | 50

Lab note: next molecule to report on.
Q: What IC50, μg/ml COX-1 value was documented for this molecule, CCC1(CC)OC(c2ccc(S(C)(=O)=O)cc2)=C(c2ccc(C(F)(F)F)cc2)C1=O ?
Ans: 3

Value source: patent US6492416B1
